Provide the reported pIC50 of each item.
- System: HeLa
- ASSAY METHOD TEXT: Cytotoxicity against Homo sapiens (human) HeLa cells by MTT assay
- Format: functional, cell-based
Numbers only, as −log10 of the molar value.

Example cases with answers are listed next.
> print(dat)
                              line.notation  measure  endpoint.value
1  CCN(CC)CCOc1cc(O)c2c(=O)cc(-c3ccccc3)oc2c1    pIC50            4.73
2  CCCCN(CCCC)CCOc1cc(O)c2c(=O)cc(-c3ccccc3)oc2c1    pIC50            4.88
3  CC(C)N(CCOc1cc(O)c2c(=O)cc(-c3ccccc3)oc2c1)C(C)C    pIC50            4.62
4   O=c1cc(-c2ccccc2)oc2cc(OCCNCCO)cc(O)c12    pIC50            5.35
5  CN(C)CCOc1cc(O)c2c(=O)cc(-c3ccccc3)oc2c1    pIC50            4.75

Record pIC50 per entry; entries follow.
1. O=c1cc(-c2ccccc2)oc2cc(OCCN(CCO)CCO)cc(O)c12
2. O=c1cc(-c2ccccc2)oc2cc(OCCn3ccnc3)cc(O)c12
3. O=c1cc(-c2ccccc2)oc2cc(OCCNC3CCCCC3)cc(O)c12

Reply text:
1. 4.06
2. 4.97
3. 5.16

Inquiry: State the recorded pIC50 for this entry: CCCN(CCC)CCOc1cc(O)c2c(=O)cc(-c3ccccc3)oc2c1
Reply text: 5.81

----------
- System: HCT-116
- ASSAY METHOD TEXT: Cytotoxicity against Homo sapiens (human) HCT116 cells by MTT assay
- Type: functional, cell-based
MEASURE: pIC50
Numbers only, as −log10 of the molar value.

Record pIC50 per entry; entries follow.
1. O=c1cc(-c2ccccc2)oc2cc(OCCNc3ccccc3)cc(O)c12
2. O=c1cc(-c2ccccc2)oc2cc(OCCN3CCNCC3)cc(O)c12
3. CCCN(CCC)CCOc1cc(O)c2c(=O)cc(-c3ccccc3)oc2c1
4. CN1CCN(CCOc2cc(O)c3c(=O)cc(-c4ccccc4)oc3c2)CC1
5. CN(C)CCOc1cc(O)c2c(=O)cc(-c3ccccc3)oc2c1
6. CCCNCCOc1cc(O)c2c(=O)cc(-c3ccccc3)oc2c1
7. CCCCN(CCCC)CCOc1cc(O)c2c(=O)cc(-c3ccccc3)oc2c1

Reply text:
[4.45, 4.49, 4.42, 4.73, 5.21, 5.82, 5.01]

Record pIC50 per entry; entries follow.
1. O=c1cc(-c2ccccc2)oc2cc(OCCNC3CCCCC3)cc(O)c12
2. O=c1cc(-c2ccccc2)oc2cc(OCCN(CCO)CCO)cc(O)c12

Reply text:
1. 5.53
2. 4.65

----------
- Tested on: HCT-116
- ASSAY METHOD TEXT: Cytotoxicity against Homo sapiens (human) HCT116 cells by MTT assay
- Format: functional, cell-based
MEASURE: IC50 (µM)
Answers are plain numbers, in µM.

Record IC50 per entry; entries follow.
1. Cc1nccn1CCOc1cc(O)c2c(=O)cc(-c3ccccc3)oc2c1
2. CC(C)N(CCOc1cc(O)c2c(=O)cc(-c3ccccc3)oc2c1)C(C)C
3. O=c1cc(-c2ccccc2)oc2cc(OCCn3ccnc3)cc(O)c12
4. CCCCNCCOc1cc(O)c2c(=O)cc(-c3ccccc3)oc2c1
5. CC(C)(C)NCCOc1cc(O)c2c(=O)cc(-c3ccccc3)oc2c1
6. O=c1cc(-c2ccccc2)oc2cc(OCCNCCO)cc(O)c12

Reply text:
3.2
4.6
4.2
2.7
1.87
2.3

----------
- System: SGC-7901
- ASSAY METHOD TEXT: Cytotoxicity against Homo sapiens (human) SGC7901 cells by MTT assay
- Type: functional, cell-based
Provide the reported log10 IC50 of each item.
The base-10 logarithm of IC50, taken with IC50 in µM, is what appears here.

> print(dat)
                              line.notation  study.system  endpoint.value
1  CCCCN(CCCC)CCOc1cc(O)c2c(=O)cc(-c3ccccc3)oc2c1      SGC-7901            1.73
2  CN(C)CCOc1cc(O)c2c(=O)cc(-c3ccccc3)oc2c1      SGC-7901            1.04
3  O=c1cc(-c2ccccc2)oc2cc(OCCn3ccnc3)cc(O)c12      SGC-7901            0.74
4   CCCNCCOc1cc(O)c2c(=O)cc(-c3ccccc3)oc2c1      SGC-7901            1.05
5  CC(C)N(CCOc1cc(O)c2c(=O)cc(-c3ccccc3)oc2c1)C(C)C      SGC-7901            0.90
6  O=c1cc(-c2ccccc2)oc2cc(OCCNc3ccccc3)cc(O)c12      SGC-7901            1.84
7  O=c1cc(-c2ccccc2)oc2cc(OCCNC3CCCCC3)cc(O)c12      SGC-7901            0.79
8  O=c1cc(-c2ccccc2)oc2cc(OCCN3CCCCC3)cc(O)c12      SGC-7901            0.49

Inquiry: Recall the recorded log10 IC50 for CCCN(CCC)CCOc1cc(O)c2c(=O)cc(-c3ccccc3)oc2c1 with SGC-7901 and state it.
Reply text: 1.37

----------
- Tested on: HCT-116
- ASSAY METHOD TEXT: Cytotoxicity against Homo sapiens (human) HCT116 cells by MTT assay
- Format: functional, cell-based
Provide the reported pIC50 of each item.
Give bare numbers, as −log10 of the molar value.

> print(dat)
                              line.notation  measure  endpoint.value
1     CNCCOc1cc(O)c2c(=O)cc(-c3ccccc3)oc2c1    pIC50            5.60
2  CCN(CC)CCOc1cc(O)c2c(=O)cc(-c3ccccc3)oc2c1    pIC50            5.01

Please turn your attention to the following entry.
Inquiry: State the recorded pIC50 for this entry: CC(C)NCCOc1cc(O)c2c(=O)cc(-c3ccccc3)oc2c1
Reply text: 5.09

----------
- System: SGC-7901
- ASSAY METHOD TEXT: Cytotoxicity against Homo sapiens (human) SGC7901 cells by MTT assay
- Type: functional, cell-based
pIC50: −log10 of the molar value.
MEASURE: pIC50

Record pIC50 per entry; entries follow.
1. CC(C)NCCOc1cc(O)c2c(=O)cc(-c3ccccc3)oc2c1
2. O=c1cc(-c2ccccc2)oc2cc(OCCN3CCNCC3)cc(O)c12
3. O=c1cc(-c2ccccc2)oc2cc(OCCN3CCN(c4ccccc4)CC3)cc(O)c12

Reply text:
["< 4.00", "< 4.00", "< 4.00"]
